tested on: SF-268 CNS; assay: NCI-60 one-dose screen, 48 h (100 = growth as untreated, 0 = no growth, -100 = all killed); conditions: 10 µM unless noted
Compounds without any hit were thinned out: in the full panel of roughly 83,000, 20% have a hit.
Give growth for every item shown.
Only the number, expressed in %, is required.

Reported growth for `Cn1cc(-c2csc(-c3cn(CCCN4CCCCC4)c4ccc(Br)cc34)n2)c2cccnc21` was 46.1

Reported growth for `Cc1ccncc1C(=O)O` was 94.8

Reported growth for `Clc1ccc2c(NCCNc3nc(-c4ccccc4)cc(-c4ccccc4)n3)ccnc2c1` was -59.7

Reported growth for `Cc1cccc(C)c1NCc1nc(-c2ccccc2)n[nH]1` was 101

Reported growth for `N=C(N)c1ccc(S(N)(=O)=O)cc1` was 96.1

Reported growth for `CC1(C)NCCC[C@]2(C)[C@H]3CC[C@@H]4[C@H]5[C@H](C(=O)/C=C/c6ccccn6)CC[C@]5(CO)CC[C@@]4(C)[C@]3(C)CC[C@@H]12` was 78.7

Reported growth for `O=C1OC(c2ccc(Cl)c(Cl)c2)=C/C1=C/c1cccc([N+](=O)[O-])c1` was 97.9

Reported growth for `CC(C)(C)CC(C)(C)c1ccc(OCCOCC[N+](C)(C)CC(=O)[O-])cc1` was 109

Reported growth for `CC1=CC(=O)N(c2cccc3c(N4C(=O)C=C(C)C4=O)cccc23)C1=O` was 106

Reported growth for `Nc1c(C(=O)Nc2cccc(Cl)c2)sc2ncc(Cl)cc12` was 63.5
